# measured.on: human RIOK2 protein (Homo sapiens)
# Construct: glutathione S-transferase is fused to N-terminal of a full-length human RIOK2 protein; GST (glutathione S-transferase) (N); purchased CarnaBio, Inc; host or cells: baculovirus-Sf21 cell expression system
# Sequence (Q9BVS4 whole entry, the tested form may be a part): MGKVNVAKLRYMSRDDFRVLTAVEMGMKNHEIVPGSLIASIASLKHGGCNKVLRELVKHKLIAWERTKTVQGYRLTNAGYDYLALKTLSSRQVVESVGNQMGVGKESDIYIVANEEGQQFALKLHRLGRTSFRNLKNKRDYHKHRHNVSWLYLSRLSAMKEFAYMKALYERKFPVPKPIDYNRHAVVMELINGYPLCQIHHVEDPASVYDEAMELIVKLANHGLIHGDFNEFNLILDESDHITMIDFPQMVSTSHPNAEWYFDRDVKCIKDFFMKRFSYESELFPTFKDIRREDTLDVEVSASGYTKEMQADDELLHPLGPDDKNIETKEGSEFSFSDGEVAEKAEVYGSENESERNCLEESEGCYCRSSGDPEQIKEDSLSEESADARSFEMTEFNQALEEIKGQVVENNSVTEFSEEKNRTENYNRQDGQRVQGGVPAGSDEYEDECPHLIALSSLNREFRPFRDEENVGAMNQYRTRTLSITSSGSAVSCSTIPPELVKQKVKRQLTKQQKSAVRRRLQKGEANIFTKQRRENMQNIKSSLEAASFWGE
# test.description: RIOK2 autophosphorylation ELISA (Test Example 4)
# Type: biochemical
# test.settings: read-out: Inhibitory activity at 1 μM (%)
Here the recorded inhibition at 1 µM is given for each entry.
readout: inhibition at 1 µM (%)

• CCOCCCNC(=O)c1c(C)[nH]c(/C=C2\C(=O)Nc3ccc(-c4cnn(-c5ccccc5)c4)cc32)c1C [Example 91] = -7
• CCN(CC)CCNC(=O)c1c(C)[nH]c(/C=C2\C(=O)Nc3ccc(-c4ccnn4-c4ccccn4)cc32)c1C [Example 63] = 14
• CCN(CC)CCNC(=O)c1c(C)[nH]c(/C=C2\C(=O)Nc3ccc(-c4cnn(-c5cccnc5)c4)cc32)c1C [Example 79] = 42
• Cc1[nH]c(/C=C2\C(=O)Nc3ccc(-c4cnn(-c5ccccc5)c4)cc32)c(C)c1C(=O)NC[C@H]1CCCN1 [Example 100] = 9
• Cc1[nH]c(/C=C2\C(=O)Nc3ccc(-c4cnn(-c5ccccc5)c4)cc32)c(C)c1C(=O)NCc1nc2ccccc2[nH]1 [Example 99] = -11
• CCN(CC)CCNC(=O)c1c(C)[nH]c(/C=C2\C(=O)Nc3ccc(-c4cnn(-c5ccc(S(N)(=O)=O)cc5)c4)cc32)c1C [Example 74] = 26
• CCN(CC)CCNC(=O)c1c(C)[nH]c(/C=C2\C(=O)Nc3ccc(-c4ccnn4-c4ccncc4)cc32)c1C [Example 66] = -6
• Cc1[nH]c(/C=C2\C(=O)Nc3ccc(-c4cnn(-c5ccccc5)c4)cc32)c(C)c1C(=O)NC1CNCC(c2ccccc2)C1 (centres unmarked) [Example 96] = -13
• Cc1[nH]c(/C=C2\C(=O)Nc3ccc(-c4cnn(-c5ccccc5)c4)cc32)c(C)c1C(=O)NCCc1ncc[nH]1 [Example 98] = -2
• CCN(CC)CCNC(=O)c1c(C)[nH]c(/C=C2\C(=O)Nc3ccc(-c4ccnn4-c4ccccc4F)cc32)c1C [Example 58] = 56
• CCN(CC)CCNC(=O)c1c(C)[nH]c(/C=C2\C(=O)Nc3ccc(-c4ccnn4-c4ccc(Cl)c(Cl)c4)cc32)c1C [Example 65] = 18
• Cc1[nH]c(/C=C2\C(=O)Nc3ccc(-c4cnn(-c5ccccc5)c4)cc32)c(C)c1C(=O)NC[C@@H]1CCCN1 [Example 101] = 13
• CCN(CC)CCNC(=O)c1c(C)[nH]c(/C=C2\C(=O)Nc3ccc(-c4cnn(-c5ccccn5)c4)cc32)c1C [Example 32] = 36
• Cc1[nH]c(/C=C2\C(=O)Nc3ccc(-c4cnn(-c5ccccn5)c4)cc32)c(C)c1C(=O)NCCN1CCCC1 [Example 33] = 53
• Cc1[nH]c(/C=C2\C(=O)Nc3ccc(-c4cnn(-c5ccccc5)c4)cc32)c(C)c1C(=O)NC1[C@H]2CNC[C@@H]12 (some centres unmarked) [Example 95] = 22
• CCN(CC)CCNC(=O)c1c(C)[nH]c(/C=C2\C(=O)Nc3ccc(-c4ccnn4-c4ccc(C(F)(F)F)cc4)cc32)c1C [Example 60] = 9
• CCN(CC)CCN(C)C(=O)c1c(C)[nH]c(/C=C2\C(=O)Nc3ccc(-c4cnn(-c5ccccc5)c4)cc32)c1C [Example 92] = 3
• Cc1[nH]c(/C=C2\C(=O)Nc3ccc(-c4cnn(-c5ccccc5)c4)cc32)c(C)c1C(=O)N[C@@H]1CCCNC1 [Example 89] = 22
• CCN(CC)CCNC(=O)c1c(C)[nH]c(/C=C2\C(=O)Nc3ccc(-c4cnn(-c5ccccc5)c4)cc32)c1C [Example 4] = 45
• CCN(CC)CCCNC(=O)c1c(C)[nH]c(/C=C2\C(=O)Nc3ccc(-c4cnn(-c5ccccc5)c4)cc32)c1C [Example 90] = 20
• Cc1[nH]c(/C=C2\C(=O)Nc3ccc(-c4cnn(-c5ccccc5)c4)cc32)c(C)c1C(=O)NC1(CN2CCCCC2)CC1 [Example 97] = 6
• CCN(CC)CCNC(=O)c1c(C)[nH]c(/C=C2\C(=O)Nc3ccc(-c4ccnn4-c4cccc(C)c4)cc32)c1C [Example 61] = 29
• CCN(CC)CCNC(=O)c1c(C)[nH]c(/C=C2\C(=O)Nc3ccc(-c4ccnn4-c4ccc(F)cc4)cc32)c1C [Example 57] = 39
